Biological target: Glucocorticoid Receptor (GR) (Homo sapiens, UniProt P04150)
Sequence (P04150 1-777): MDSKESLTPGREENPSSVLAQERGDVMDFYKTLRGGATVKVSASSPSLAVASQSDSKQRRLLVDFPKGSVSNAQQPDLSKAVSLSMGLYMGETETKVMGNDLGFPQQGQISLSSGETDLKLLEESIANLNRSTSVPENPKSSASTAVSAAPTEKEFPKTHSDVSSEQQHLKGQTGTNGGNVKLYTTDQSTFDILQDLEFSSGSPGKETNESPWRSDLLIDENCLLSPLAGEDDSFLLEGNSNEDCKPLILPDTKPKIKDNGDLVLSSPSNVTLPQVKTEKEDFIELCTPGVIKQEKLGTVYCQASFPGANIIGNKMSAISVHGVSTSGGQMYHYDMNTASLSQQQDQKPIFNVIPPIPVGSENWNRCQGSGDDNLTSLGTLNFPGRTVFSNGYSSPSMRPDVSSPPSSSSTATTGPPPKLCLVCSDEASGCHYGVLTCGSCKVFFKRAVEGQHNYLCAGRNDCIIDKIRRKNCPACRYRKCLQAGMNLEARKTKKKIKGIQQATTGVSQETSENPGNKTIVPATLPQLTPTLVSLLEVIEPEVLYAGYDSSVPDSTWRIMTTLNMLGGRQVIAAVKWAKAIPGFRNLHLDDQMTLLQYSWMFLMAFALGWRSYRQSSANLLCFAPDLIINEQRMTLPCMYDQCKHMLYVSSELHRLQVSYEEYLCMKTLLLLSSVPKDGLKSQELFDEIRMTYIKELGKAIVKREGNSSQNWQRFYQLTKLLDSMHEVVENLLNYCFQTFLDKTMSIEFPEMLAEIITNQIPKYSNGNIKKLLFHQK
readout-kind: IC50

[
  {
    "compound": "CC[C@@]12CC[C@](O)(CC#N)C[C@@H]1CCCc1cc(C(=O)Nc3cccnc3C)ccc12 (racemic) [Example 64]",
    "IC50": "100 to 1000 nM"
  },
  {
    "compound": "CCC[C@@]12CC[C@](O)(Cc3ccccc3)C[C@@H]1CCCc1cc(C(=O)Nc3cccnc3C)ccc12.CCC[C@]12CC[C@@](O)(Cc3ccccc3)C[C@H]1CCCc1cc(C(=O)Nc3cccnc3C)ccc12 [Example 34]",
    "IC50": "< 100 nM"
  }
]

# input I have this compound here, CCCOC[C@@]1(O)CC[C@@]2(Cc3ccccc3)c3ccc(C(=O)Nc4cccnc4C)cc3CCC[C@H]2C1 (racemic) [Example 101] , and I need its recorded IC50.
# output < 100 nM

----------
IC50 values by entry
Target: Glucocorticoid Receptor (GR) (Homo sapiens, UniProt P04150)
Construct: purchased Invitrogen P2893
Assay: GR Florescence Polarization Assay (PolarScreen Glucocorticoid Receptor Competitor Assay, Red)
Conditions: Fluorescense polarization binding ranges; competition with fluorescent glucocorticoid, incubated overnight at 4° C.

Worked cases, IC50 given:
[
  {
    "compound": "CCC[C@@]12CC[C@@](O)(Cc3ccccc3)C[C@@H]1CCCc1cc(C(=O)Nc3cccnc3C)ccc12.CCC[C@]12CC[C@](O)(Cc3ccccc3)C[C@H]1CCCc1cc(C(=O)Nc3cccnc3C)ccc12 [Example 35]",
    "IC50": "1000 to 10000 nM"
  },
  {
    "compound": "CC[C@@]1(O)CC[C@@]2(Cc3ccccc3)c3ccc(C(=O)Nc4nncs4)cc3CCC[C@H]2C1 [Example 74]",
    "IC50": "100 to 1000 nM"
  }
]

Pending compound:
# input I have this compound here, Cc1ncccc1NC(=O)c1ccc2c(c1)CCC[C@H]1C[C@@](O)(COC3CCOCC3)CC[C@@]21Cc1ccccc1 (racemic) [Example 102] , and I need its recorded IC50.
# output < 100 nM

Where do these numbers come from? They come from patent US20120238549A1.
